Tested on: HEK-293T
assay-procedure: Cytotoxicity against human HEK293T cells co-transfected with Gal4-fused human Nurr1 LBD and pFR-Luc/pRL-SV40 assessed as decrease in renilla luciferase activity at 100 uM incubated for 16 hrs by Dual-Glo luciferase assay relative to control
measured-quantity: Activity

Before answering, review these 4 worked examples.
CC(C)CN1CCC(NC(=O)c2cc3[nH]ccc3cc2Cl)CC1    Non-Toxic
O=C(NCCc1c[nH]c2ccc(F)cc12)c1cc2[nH]ccc2cc1Cl    Toxic
CC(C)CN1CCC(N)CC1    Non-Toxic
O=C(Nc1ccccc1NCCCn1ccnc1)c1cc2[nH]ccc2cc1Cl    Non-Toxic

Alright, here's another molecule for you.
Note to self: Activity recorded for `O=C(NCc1ccc2[nH]ncc2c1)c1cc2[nH]ccc2cc1Cl` was Toxic
